Assayed System: Retinaldehyde dehydrogenase 3 (Homo sapiens) (UniProt P47895)
Measurement Notes: qHTS for Inhibitors of the Aldehyde Dehydrogenase Family (ALDH1A3) Validation screen (AID 2061312); note: nearly all actives have a fitted effect of over 45% in size
Experimental Parameters: ALDH1A3 enzyme inhibition qHTS validation, fluorescence; series mostly up to 84.7 µM
Results filed as inconclusive are left out. Calls of active or inactive are those of the source. Calls come from the whole dose curve; as a rule, active = well fitted inhibition curve with a large enough effect; inconclusive = small, poorly fitted or top-dose-only effect; inactive = no such curve, though single readings can be large or run the other way.
Outcomes: active, inactive

[
  {
    "Molecule": "COc1ccc(C2CC(c3ccccc3)=NN2c2ccc(S(N)(=O)=O)cc2)cc1 (stereo not given)",
    "Assayed System": "Retinaldehyde dehydrogenase 3 (Homo sapiens) (UniProt P47895)",
    "Class Assignment": "inactive"
  },
  {
    "Molecule": "Cc1ccccc1NC(=O)Nc1ccc(CN2C(=O)N([C@@H](CC(C)C)C(=O)N[C@@H](CC(=O)O)c3ccccc3)C(=O)C2(C)C)cc1",
    "Assayed System": "Retinaldehyde dehydrogenase 3 (Homo sapiens) (UniProt P47895)",
    "Class Assignment": "inactive"
  },
  {
    "Molecule": "COc1cccc(-c2ccc([C@@H](Oc3cc(-c4ccc(C[C@H](N)C(=O)O)cc4)nc(N)n3)C(F)(F)F)cc2)c1",
    "Assayed System": "Retinaldehyde dehydrogenase 3 (Homo sapiens) (UniProt P47895)",
    "Class Assignment": "inactive"
  },
  {
    "Molecule": "O=c1[nH]ccc2c(O)cccc12",
    "Assayed System": "Retinaldehyde dehydrogenase 3 (Homo sapiens) (UniProt P47895)",
    "Class Assignment": "inactive"
  },
  {
    "Molecule": "CC(C)(NS(=O)(=O)c1ccc(Oc2ccc(F)cc2)cc1)C(=O)NO",
    "Assayed System": "Retinaldehyde dehydrogenase 3 (Homo sapiens) (UniProt P47895)",
    "Class Assignment": "inactive"
  },
  {
    "Molecule": "O=C(O)c1cc([N+](=O)[O-])ccc1NCCCc1ccccc1",
    "Assayed System": "Retinaldehyde dehydrogenase 3 (Homo sapiens) (UniProt P47895)",
    "Class Assignment": "inactive"
  },
  {
    "Molecule": "Cc1ccc(-c2cn3c4c(sc3n2)CCCC4)cc1",
    "Assayed System": "Retinaldehyde dehydrogenase 3 (Homo sapiens) (UniProt P47895)",
    "Class Assignment": "active"
  },
  {
    "Molecule": "O=C(O)c1cc(=O)cc(C(=O)O)[nH]1",
    "Assayed System": "Retinaldehyde dehydrogenase 3 (Homo sapiens) (UniProt P47895)",
    "Class Assignment": "inactive"
  },
  {
    "Molecule": "C=C[C@@H]1CN2CC[C@@H]1C[C@H]2[C@H](O)c1ccnc2ccc(OC)cc12",
    "Assayed System": "Retinaldehyde dehydrogenase 3 (Homo sapiens) (UniProt P47895)",
    "Class Assignment": "inactive"
  },
  {
    "Molecule": "Nc1nc2c(ncn2[C@@H]2O[C@H](CO)[C@@H](O)[C@H]2O)c(=O)[nH]1",
    "Assayed System": "Retinaldehyde dehydrogenase 3 (Homo sapiens) (UniProt P47895)",
    "Class Assignment": "inactive"
  }
]
